The origin of these recorded values is the NIST ThermoML archive (doi:10.1016/j.jct.2013.08.019).

assay: Molar enthalpy of transition or fusion; settings: Crystal; DSC
Molar enthalpy of transition or fusion strictly under 10 kcal/mol means class 1; at 10 kcal/mol or over means class 0.

Example results:
>>> class_assignment("OCCCCCCCCO [1,8-octanediol]")
"class 1"
>>> class_assignment("OCCCCCCCCCCO [1,10-decanediol]")
"class 0"
>>> class_assignment("OCCCCCCCCCO [1,9-nonanediol]")
"class 1"

Okay, next one:
Report whether reported Molar enthalpy of transition or fusion is lower than 10 kcal/mol (strictly) for OCCCCCCCO [1,7-heptanediol] class 1

* * *

details: Crystal; DTA
Could you please report measured Normal melting temperature for the items listed next?
Give bare numbers, in °C.

>>> readout_number("OCCCCCCCO")
17.4

Report Normal melting temperature for every entry below.
1. OCCCCCCCCCCO
2. OCCCCCCO
3. OCCCCCCCCO
4. OCCCCCCCCCCCCO [1,12-dihydroxydodecane]
5. OCCCCCCCCCCCO
6. OCCCCCCCCCO

72.7
41.6
58.5
79.8
61.0
45.6

What does the record list as Normal melting temperature for OCCCCCCCCCCCCCCO ? 86.1

* * *

Could you please report measured Molar enthalpy of transition or fusion for the items listed next?
assay: Molar enthalpy of transition or fusion; settings: Crystal; DSC
Numbers only, in kcal/mol.

>>> readout_number("OCCCCCCCCCCCO")
11

Report Molar enthalpy of transition or fusion for every entry below.
1. OCCCCCCO
2. OCCCCCCCCCCCCO [1,12-dihydroxydodecane]
3. OCCCCCCCCCCCCCCO

6.31
13
15.2
